Each entry below carries its recorded viability, T/C.
Test system: 171881-019-R-J1-PDC tumor spheroids, viability
Experiment: Anticancer human tumor 171881-019-R-J1-PDC patient-derived invasive breast carcinoma cell line growth inhibition [GQUAD]
Details: second compound 0.316 µM; first compound 0.1 µM; stronger effect = lower value; spheroids with HUVEC and MSC
Source text: DNA G-quadruplex Stabilizer Agents in Combinations in Complex Spheroids A high-throughput screen of multi-cell type tumor spheroids was designed to identify active combinations of DNA G-quadruplex stabilizer agents and targeted small molecules. […] Compounds. […] If the clinical Cmax for an agent had not been determined, the highest concentration tested was 10 microM. […]

I have this compound here, C#Cc1c(F)ccc2cc(O)cc(-c3ncc4c(N5CC6CCC(C5)N6)nc(OCC56CCCN5CC(F)C6)nc4c3F)c12 (stereo unspecified) + Cc1cnc(CNC(=O)c2c(=O)c3ccc(N4CCCN(C)CC4)nc3n3c2sc2ccccc23)cn1 , and I need its recorded viability, T/C.
62.3%

###

System: 171881-019-R-J1-PDC tumor spheroids, viability
Assay: Anticancer human tumor 171881-019-R-J1-PDC cell line growth inhibition [GQUAD]; active = viability on the fitted dose curve at most 10% of control; inactive = the rest;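 further: spheroids exposed to compounds for 7 days; 100% = DMSO vehicle control viability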
Details: second compound 0.316 µM; first compound 1 µM; spheroids with HUVEC and MSC
Valid outcomes are listed here; reply with one: y = active, n = inactive

- compound: "CC(C)n1c(=O)n(C)c2cnc3cc(F)c(-c4ccc(OCCCN5CCCCC5)nc4)cc3c21 + Cc1[nH]c2ccc(F)cc2c1-c1nc2c3cccnc3c3ncccc3c2[nH]1"
  discreteLabel: "n"
- compound: "COc1cc(C2c3cc4c(cc3C(OC3OC5COC(C)OC5C(O)C3O)C3COC(=O)C23)OCO4)cc(OC)c1O (stereo not given) + Cc1cnc(CNC(=O)c2c(=O)c3ccc(N4CCCN(C)CC4)nc3n3c2sc2ccccc23)cn1"
  discreteLabel: "n"

Write down the call the test reported for this compound. Item: C=CC(=O)N1CCN(c2nc(=O)n(-c3c(C)ccnc3C(C)C)c3nc(-c4c(O)cccc4F)c(F)cc23)C(C)C1 (stereo not given) + Cc1cnc(CNC(=O)c2c(=O)c3ccc(N4CCCN(C)CC4)nc3n3c2sc2ccccc23)cn1
n

Same question, CCCS(=O)(=O)Nc1ccc(F)c(C(=O)c2c[nH]c3ncc(-c4ccc(Cl)cc4)cc23)c1F + Cc1[nH]c2ccc(F)cc2c1-c1nc2c3cccnc3c3ncccc3c2[nH]1 this time
n

Same question, C=CC(=O)N1CCN(c2nc(=O)n(-c3c(C)ccnc3C(C)C)c3nc(-c4c(O)cccc4F)c(F)cc23)C(C)C1 (stereo not given) + CN(C)c1ccc(Nc2c3ccc(NC(=O)CCN4CCCC4)cc3nc3cc(NC(=O)CCN4CCCC4)ccc23)cc1 this time
n

Same question, Cc1cccc(N(C)C(=O)C2C(O)CCN2c2nc(C)cc(C(F)(F)F)c2C#N)c1 (stereo not given) + Cc1[nH]c2ccc(F)cc2c1-c1nc2c3cccnc3c3ncccc3c2[nH]1 this time
n

Same question, CC1COCCN1c1cc(C2(O)CC3CCC(C2)O3)c2cnn(-c3ccn[nH]3)c2n1 (stereo not given) + Cc1[nH]c2ccc(F)cc2c1-c1nc2c3cccnc3c3ncccc3c2[nH]1 this time
y

Same question, CC1COCCN1c1cc(C2(O)CC3CCC(C2)O3)c2cnn(-c3ccn[nH]3)c2n1 (stereo not given) + CN(C)c1ccc(Nc2c3ccc(NC(=O)CCN4CCCC4)cc3nc3cc(NC(=O)CCN4CCCC4)ccc23)cc1 this time
y

Same question, CC1COCCN1c1cc(C2(O)CC3CCC(C2)O3)c2cnn(-c3ccn[nH]3)c2n1 (stereo not given) + Cc1cnc(CNC(=O)c2c(=O)c3ccc(N4CCCN(C)CC4)nc3n3c2sc2ccccc23)cn1 this time
y

Same question, CC(=O)O[C@H]1C(=O)[C@@]2(C)[C@H]([C@H](OC(=O)c3ccccc3)[C@]3(O)C[C@H](OC(=O)[C@H](O)[C@@H](NC(=O)c4ccccc4)c4ccccc4)C(C)=C1C3(C)C)[C@]1(OC(C)=O)CO[C@@H]1C[C@@H]2O + CN(C)c1ccc(Nc2c3ccc(NC(=O)CCN4CCCC4)cc3nc3cc(NC(=O)CCN4CCCC4)ccc23)cc1 this time
n
